Tested on: HFP4
Experiment: in vitro
Design: MTT metabolic activity assay, absorbance at 570 nm
Conditions: replicate 3; single replicate; 48 h; read-out: Bis-PMS 6 (IC50 / µM)
Counter-ions that a name gives are not always drawn.
Endpoint: CC50 (µM)
One number for each entry, in µM.

Q: Field request: CC50 | item: CN1C(=CC=C(C=CC2=[N+](C)c3ccccc3C2(C)C)c2cccc(C(C=CC3=[N+](C)c4ccccc4C3(C)C)=CC=C3N(C)c4ccccc4C3(C)C)c2)C(C)(C)c2ccccc21 [compound 6, m-bis-pentamethinium salt 6]
Ans: 1.95

====

System: BJ-hTERT
Assay: in vitro
Parameters: MTT metabolic activity assay, absorbance at 570 nm
Details: replicate 3; single replicate; 48 h; read-out: Bis-PMS 6 (IC50 / µM)
Experimental: A colorimetric MTT cell metabolic activity assay was used to determine the cytotoxicity of Bis-PMSs 5 and 6. […] The absorbance of the converted dye was measured at a wavelength of 570 nm with the reference of 630 nm using a SpectraMax ABS Plus microplate reader (Molecular Devices). […] The cell inhibitory concentration (IC) was calculated using the equation IC = (APMS well/mean Acontrol wells) × 100%. […]
Where a name gives a salt, the structure may show the parent alone.
Endpoint: CC50 (µM)
Give bare numbers, in µM.

Q: Field request: CC50 | item: CN1C(=CC=C(C=CC2=[N+](C)c3ccccc3C2(C)C)c2cccc(C(C=CC3=[N+](C)c4ccccc4C3(C)C)=CC=C3N(C)c4ccccc4C3(C)C)c2)C(C)(C)c2ccccc21 [compound 6, m-bis-pentamethinium salt 6]
Ans: 0.776
